All values here come from ChEMBL document CHEMBL1145498.

TARGET UNDER TEST: Inhibitor of nuclear factor kappa-B kinase subunit alpha (Homo sapiens, UniProt O15111)
RUN DESCRIPTION: Inhibition of IKK1
pIC50: −log10 of the molar value.
RESULT TYPE: pIC50

Query: Item under review: COc1cc(O)c2c(c1)oc(=O)c1c3cc(O)c(O)cc3oc21 [WEDELOLACTONE] . Reported pIC50?
Result: < 5.00

###

A short record of ΔTm observed with Serine/threonine-protein kinase PAK 6 (Homo sapiens) (UniProt Q9NQU5) follows.
Sequence (Q9NQU5 whole entry, looked up): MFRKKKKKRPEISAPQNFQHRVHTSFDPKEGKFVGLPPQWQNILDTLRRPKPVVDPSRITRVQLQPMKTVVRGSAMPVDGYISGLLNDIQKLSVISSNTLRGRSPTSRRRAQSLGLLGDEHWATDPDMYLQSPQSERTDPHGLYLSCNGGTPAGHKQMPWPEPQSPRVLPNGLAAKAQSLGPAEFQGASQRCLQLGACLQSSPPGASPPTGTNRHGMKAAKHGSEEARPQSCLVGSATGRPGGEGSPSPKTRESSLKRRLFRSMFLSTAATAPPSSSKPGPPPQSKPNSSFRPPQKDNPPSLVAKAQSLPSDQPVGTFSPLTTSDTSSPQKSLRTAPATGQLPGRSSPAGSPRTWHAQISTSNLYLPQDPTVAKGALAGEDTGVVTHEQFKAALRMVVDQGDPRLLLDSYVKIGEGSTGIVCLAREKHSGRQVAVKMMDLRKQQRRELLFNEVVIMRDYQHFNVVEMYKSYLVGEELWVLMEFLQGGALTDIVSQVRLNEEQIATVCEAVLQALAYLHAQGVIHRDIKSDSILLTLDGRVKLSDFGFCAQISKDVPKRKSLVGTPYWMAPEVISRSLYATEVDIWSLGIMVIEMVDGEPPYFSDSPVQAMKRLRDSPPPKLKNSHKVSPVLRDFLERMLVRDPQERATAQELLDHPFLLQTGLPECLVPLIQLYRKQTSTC
Could you give the number and then its unit, please?

Completed entries (count: 3):
>>> result("O=c1c2ccccc2[nH]c(=S)n1CCN1CCC(=C(c2ccc(F)cc2)c2ccc(F)cc2)CC1 [DIACYLGLYCEROL KINASE INHIBITOR II]")
"-0.1 °C"
>>> result("N#CC(C#N)=Cc1ccc(O)c(O)c1 [TYRPHOSTIN 23]")
"-0.2 °C"
>>> result("Cc1cc(C=C2C(=O)C=CC2=O)cc(C)c1O")
"-2.6 °C"

Query: Reported ΔTm, molecule CC(=O)O/N=C1/C(=C2/C(=O)Nc3cc(Br)ccc32)Nc2ccccc21 [6-BROMOINDIRUBIN-3'-ACETOXIME] : ____
Result: 0.3 °C

###

TARGET UNDER TEST: Ribosomal protein S6 kinase alpha-3 (Homo sapiens) (UniProt P51812)
Sequence (P51812 whole entry): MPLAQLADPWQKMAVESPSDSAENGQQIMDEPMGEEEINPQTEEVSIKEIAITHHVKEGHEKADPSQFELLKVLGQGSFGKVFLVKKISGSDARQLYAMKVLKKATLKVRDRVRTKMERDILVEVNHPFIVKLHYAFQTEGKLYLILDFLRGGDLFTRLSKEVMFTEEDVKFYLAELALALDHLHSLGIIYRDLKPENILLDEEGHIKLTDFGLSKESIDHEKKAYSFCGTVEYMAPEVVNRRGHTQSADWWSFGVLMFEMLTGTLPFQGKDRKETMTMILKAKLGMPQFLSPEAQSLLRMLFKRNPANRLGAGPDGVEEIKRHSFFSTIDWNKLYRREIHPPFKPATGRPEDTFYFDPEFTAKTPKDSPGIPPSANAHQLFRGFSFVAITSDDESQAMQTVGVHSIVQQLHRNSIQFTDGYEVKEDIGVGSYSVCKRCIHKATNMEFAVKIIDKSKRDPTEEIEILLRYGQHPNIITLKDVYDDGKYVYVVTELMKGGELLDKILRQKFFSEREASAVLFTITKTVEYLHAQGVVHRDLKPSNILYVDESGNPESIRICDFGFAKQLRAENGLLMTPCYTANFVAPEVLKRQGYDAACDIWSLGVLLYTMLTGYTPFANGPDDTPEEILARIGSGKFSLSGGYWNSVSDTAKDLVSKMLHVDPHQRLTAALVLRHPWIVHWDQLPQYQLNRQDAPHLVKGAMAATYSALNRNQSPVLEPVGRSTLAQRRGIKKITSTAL
Lab note: anything with ΔTm below 3 °C is marked TRUE; values at 3 °C or higher are marked FALSE.

>>> assigned_label("Cl.Cn1cc(C2=C(c3ccc4cc5n(c4c3)CCC(CN)C5)C(=O)NC2=O)c2ccccc21 (stereo not given)")
"TRUE"
>>> assigned_label("O=C1c2ccccc2-c2n[nH]c3cccc1c23")
"FALSE"
>>> assigned_label("Nc1ncnc2c1c(I)cn2[C@@H]1O[C@H](CO)[C@@H](O)[C@H]1O")
"TRUE"

Query: Item O=c1cc(N2CCOCC2)oc2c(-c3ccccc3)cccc12 : ΔTm beneath 3 °C, strictly?
Result: TRUE

###

TARGET UNDER TEST: Tyrosine-protein kinase SYK (Homo sapiens, UniProt P43405)
RESULT TYPE: IC50 (nM)
// note: answer is a bare numeric in nM

Query: Quick one: IC50 for NCCNc1ncc(C(N)=O)c(Nc2cccc(C(F)(F)F)c2)n1 ?
Result: 41

###

Measured ΔTm (Glycogen synthase kinase-3 beta (Homo sapiens))
Give the value, in units of °C, as a plain number.

These recorded examples may help you get a feel for the data.
>>> quantitative_result("O=c1c(-c2ccc(O)cc2)coc2cc(O)cc(O)c12")
1.1
>>> quantitative_result("COc1cc2c(cc1OC)-c1n[nH]c(Nc3cccc(F)c3)c1C2")
2.9
>>> quantitative_result("C[S+]([O-])c1ccc(-c2nc(-c3ccc(F)cc3)c(-c3ccncc3)[nH]2)cc1 (stereo not drawn) [SB-203580]")
3.5
>>> quantitative_result("Ic1cccc(CSc2nnc(-c3ccncc3)o2)c1")
7.1
>>> quantitative_result("N=C(N)NCCNS(=O)(=O)c1cccc2cnccc12")
0.4

Okay, now this compound:
Query: Item: OC[C@H]1O[C@@H](n2cnc3cc(Cl)c(Cl)cc32)[C@H](O)[C@@H]1O Test system: Glycogen synthase kinase-3 beta (Homo sapiens) Read-out: ΔTm Value: ?
Result: 0.7

###

ΔTm values for the compounds below.
TARGET UNDER TEST: Serine/threonine-protein kinase PLK1 (Homo sapiens) (UniProt P53350)
Sequence (P53350 whole entry): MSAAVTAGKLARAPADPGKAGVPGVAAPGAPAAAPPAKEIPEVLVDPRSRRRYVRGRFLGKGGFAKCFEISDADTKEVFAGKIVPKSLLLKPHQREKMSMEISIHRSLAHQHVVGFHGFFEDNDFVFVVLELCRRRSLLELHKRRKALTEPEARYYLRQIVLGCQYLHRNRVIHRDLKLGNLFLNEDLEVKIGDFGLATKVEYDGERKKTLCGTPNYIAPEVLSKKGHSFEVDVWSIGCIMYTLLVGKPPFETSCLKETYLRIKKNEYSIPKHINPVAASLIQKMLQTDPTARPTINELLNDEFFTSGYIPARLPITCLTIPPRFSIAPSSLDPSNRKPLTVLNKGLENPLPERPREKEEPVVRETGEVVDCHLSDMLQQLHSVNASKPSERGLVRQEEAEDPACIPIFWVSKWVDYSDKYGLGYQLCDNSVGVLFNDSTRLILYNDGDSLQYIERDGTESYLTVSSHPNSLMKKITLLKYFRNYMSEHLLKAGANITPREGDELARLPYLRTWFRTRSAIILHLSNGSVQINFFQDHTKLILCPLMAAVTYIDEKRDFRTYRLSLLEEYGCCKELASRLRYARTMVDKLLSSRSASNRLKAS
Your answer is read as °C, so omit the unit and give the number.

Query: Please look up its ΔTm: O=C1Cc2c([nH]c3ccc(Br)cc23)-c2ccccc2N1
Result: 0.1

###

TARGET UNDER TEST: Tyrosine-protein kinase Fyn (Homo sapiens)
RUN DESCRIPTION: Inhibition of p55fyn
pIC50: −log10 of the molar value.
RESULT TYPE: pIC50

Query: Which pIC50 value belongs to COc1cc(OC)c(/C=C2\C(=O)Nc3ccccc32)c(OC)c1 ?
Result: < 4.00

###

TARGET UNDER TEST: UniProt:P00533
Sequence (P00533 whole entry): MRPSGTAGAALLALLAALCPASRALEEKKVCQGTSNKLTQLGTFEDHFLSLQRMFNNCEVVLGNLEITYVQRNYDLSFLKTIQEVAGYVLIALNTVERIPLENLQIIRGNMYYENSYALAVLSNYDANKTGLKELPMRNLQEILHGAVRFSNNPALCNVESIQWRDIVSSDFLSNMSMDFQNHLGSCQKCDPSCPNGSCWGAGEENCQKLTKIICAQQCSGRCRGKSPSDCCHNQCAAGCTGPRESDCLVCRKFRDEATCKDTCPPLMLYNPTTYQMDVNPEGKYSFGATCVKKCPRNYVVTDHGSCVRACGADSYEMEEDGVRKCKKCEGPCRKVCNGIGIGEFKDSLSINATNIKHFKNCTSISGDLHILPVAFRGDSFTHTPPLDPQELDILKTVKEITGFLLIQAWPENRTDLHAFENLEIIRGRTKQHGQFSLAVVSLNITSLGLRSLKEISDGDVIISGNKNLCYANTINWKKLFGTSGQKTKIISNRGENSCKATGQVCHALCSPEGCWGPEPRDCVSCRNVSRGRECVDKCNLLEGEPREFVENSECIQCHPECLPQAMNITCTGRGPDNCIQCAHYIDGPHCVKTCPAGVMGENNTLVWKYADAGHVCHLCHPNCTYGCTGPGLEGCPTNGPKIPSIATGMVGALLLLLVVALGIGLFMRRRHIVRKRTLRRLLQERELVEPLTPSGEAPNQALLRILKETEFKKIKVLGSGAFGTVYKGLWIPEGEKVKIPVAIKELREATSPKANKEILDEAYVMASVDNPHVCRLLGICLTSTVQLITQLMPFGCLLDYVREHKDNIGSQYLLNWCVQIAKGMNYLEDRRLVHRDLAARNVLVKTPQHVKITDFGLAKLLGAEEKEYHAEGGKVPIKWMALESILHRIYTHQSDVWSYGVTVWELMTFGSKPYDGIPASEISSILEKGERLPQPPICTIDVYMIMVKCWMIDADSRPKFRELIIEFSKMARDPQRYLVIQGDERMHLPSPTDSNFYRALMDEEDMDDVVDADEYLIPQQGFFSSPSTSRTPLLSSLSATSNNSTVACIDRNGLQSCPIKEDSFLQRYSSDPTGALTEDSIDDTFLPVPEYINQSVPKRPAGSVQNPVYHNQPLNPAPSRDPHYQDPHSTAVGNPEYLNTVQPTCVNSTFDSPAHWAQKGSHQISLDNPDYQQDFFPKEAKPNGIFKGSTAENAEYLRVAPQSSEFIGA
RESULT TYPE: IC50 (nM)
Give your result in nM as a bare value.

Query: I am curious: what IC50 value has been reported for O=C(O)/C=C/c1cc(CO)ccc1CO ?
Result: 780

###

Serine/threonine-protein kinase pim-1 (Homo sapiens) (UniProt P11309): reported ΔTm for various compounds.
Sequence (P11309 whole entry, looked up): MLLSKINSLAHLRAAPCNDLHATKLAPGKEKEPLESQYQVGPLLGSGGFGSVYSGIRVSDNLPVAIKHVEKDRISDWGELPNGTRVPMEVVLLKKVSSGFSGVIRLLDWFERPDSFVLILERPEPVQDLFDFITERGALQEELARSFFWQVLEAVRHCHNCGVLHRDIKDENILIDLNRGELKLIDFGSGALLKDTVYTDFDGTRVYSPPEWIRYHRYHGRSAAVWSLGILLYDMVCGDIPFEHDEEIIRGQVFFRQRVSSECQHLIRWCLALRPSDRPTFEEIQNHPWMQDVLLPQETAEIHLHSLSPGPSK
# value in °C; strip the unit string

>>> quantitative_result("C[S+]([O-])c1ccc(CSc2nc(-c3ccc(F)cc3)c(-c3ccncc3)[nH]2)cc1 (stereo unspecified)")
-2

Query: Looking for the measured ΔTm of COc1nccc(-c2c(-c3ccc(F)cc3)ncn2[C@H]2CC[C@H](O)CC2)n1 , can you help?
Result: -0.5

Query: How about COc1cc2ncnc(Nc3cccc(Br)c3)c2cc1OC ?
Result: 0.7

###

TARGET UNDER TEST: Cyclin-dependent kinase-like 1 (Homo sapiens)
RESULT TYPE: ΔTm (°C)
Just the number in °C, nothing appended.

>>> quantitative_result("O=C(Nc1cccc(Nc2cc(Nc3cccc(C(F)(F)F)c3)ncn2)c1)C1CC1")
1.5
>>> quantitative_result("COc1cc(O)c2c(c1)oc(=O)c1c3cc(O)c(O)cc3oc21")
-0.3
>>> quantitative_result("Brc1c(Br)c(Br)c2[nH]nnc2c1Br")
-0.4
>>> quantitative_result("N#C/C(=C(/N)Sc1ccc(N)cc1)c1ccccc1C(F)(F)F")
-0.2
>>> quantitative_result("O=C(O)c1cc(N(Cc2ccccc2O)Cc2cc(O)ccc2O)ccc1O")
-0.3

Query: Checklist item: ΔTm tested on Cyclin-dependent kinase-like 1 (Homo sapiens), entry COC(=O)[C@]1(O)C[C@@H]2O[C@@]1(C)n1c3ccccc3c3c4c(c5c6ccccc6n2c5c31)C(=O)NC4 (single isomer, unassigned) , value?
Result: 6.9

Query: Try this compound next: Nc1nc(Nc2ccc(S(N)(=O)=O)cc2)nn1C(=S)Nc1c(F)cccc1F
Result: 4.3

Query: Subsequent entry: O=C1NC(=O)C(c2c[nH]c3ccccc23)=C1c1c[nH]c2ccccc12
Result: 0.6

Query: Next up: CC(C)(C)n1nc(-c2ccc(Cl)cc2)c2c(N)ncnc21
Result: -0.4

Query: Also Cc1nc(Nc2ncc(C(=O)Nc3c(C)cccc3Cl)s2)cc(N2CCN(CCO)CC2)n1 , if possible.
Result: 0.6

Query: Try this compound too: NC1=N/C(=C2/CCNC(=O)c3[nH]ccc32)C(=O)N1
Result: 0.3

Query: Another compound: CCOC(=O)c1cnc2oc3ccc(O)cc3c2c1-c1ccccc1
Result: -0.3

Query: Check CN(C)C[C@@H]1CCn2cc(c3ccccc32)C2=C(C(=O)NC2=O)c2cn(c3ccccc23)CCO1 too.
Result: 0.3

Query: # repeat for CC(C)n1cnc2/c(=N/c3cccc(Cl)c3)nc(NCCO)[nH]c21
Result: -0.1

Query: Would you kindly repeat that for Nc1n[nH]c2nc3ccccc3nc12 ?
Result: 0.2

Query: Also CC(C)c1nn(-c2c(Cl)cccc2Cl)c2nc(Cc3ccc(OCCO)cc3)[nH]c(=O)c12 , if possible.
Result: 0.2

Query: Next record, please: O=c1c(O)c(-c2ccc(O)c(O)c2)oc2cc(O)cc(O)c12
Result: 1.6

Query: Moving on to Nc1ncnc2c1c(I)cn2[C@@H]1O[C@H](CO)[C@@H](O)[C@H]1O
Result: 0.2

Query: Same for NC(=O)c1ccc2[nH]c(-c3ccc(Oc4ccc(Cl)cc4)cc3)nc2c1
Result: 0.1

###

Consider compounds characterized by their ΔTm with TRAF2 and NCK-interacting protein kinase (Homo sapiens) (UniProt Q9UKE5).
Sequence (Q9UKE5 whole entry, looked up): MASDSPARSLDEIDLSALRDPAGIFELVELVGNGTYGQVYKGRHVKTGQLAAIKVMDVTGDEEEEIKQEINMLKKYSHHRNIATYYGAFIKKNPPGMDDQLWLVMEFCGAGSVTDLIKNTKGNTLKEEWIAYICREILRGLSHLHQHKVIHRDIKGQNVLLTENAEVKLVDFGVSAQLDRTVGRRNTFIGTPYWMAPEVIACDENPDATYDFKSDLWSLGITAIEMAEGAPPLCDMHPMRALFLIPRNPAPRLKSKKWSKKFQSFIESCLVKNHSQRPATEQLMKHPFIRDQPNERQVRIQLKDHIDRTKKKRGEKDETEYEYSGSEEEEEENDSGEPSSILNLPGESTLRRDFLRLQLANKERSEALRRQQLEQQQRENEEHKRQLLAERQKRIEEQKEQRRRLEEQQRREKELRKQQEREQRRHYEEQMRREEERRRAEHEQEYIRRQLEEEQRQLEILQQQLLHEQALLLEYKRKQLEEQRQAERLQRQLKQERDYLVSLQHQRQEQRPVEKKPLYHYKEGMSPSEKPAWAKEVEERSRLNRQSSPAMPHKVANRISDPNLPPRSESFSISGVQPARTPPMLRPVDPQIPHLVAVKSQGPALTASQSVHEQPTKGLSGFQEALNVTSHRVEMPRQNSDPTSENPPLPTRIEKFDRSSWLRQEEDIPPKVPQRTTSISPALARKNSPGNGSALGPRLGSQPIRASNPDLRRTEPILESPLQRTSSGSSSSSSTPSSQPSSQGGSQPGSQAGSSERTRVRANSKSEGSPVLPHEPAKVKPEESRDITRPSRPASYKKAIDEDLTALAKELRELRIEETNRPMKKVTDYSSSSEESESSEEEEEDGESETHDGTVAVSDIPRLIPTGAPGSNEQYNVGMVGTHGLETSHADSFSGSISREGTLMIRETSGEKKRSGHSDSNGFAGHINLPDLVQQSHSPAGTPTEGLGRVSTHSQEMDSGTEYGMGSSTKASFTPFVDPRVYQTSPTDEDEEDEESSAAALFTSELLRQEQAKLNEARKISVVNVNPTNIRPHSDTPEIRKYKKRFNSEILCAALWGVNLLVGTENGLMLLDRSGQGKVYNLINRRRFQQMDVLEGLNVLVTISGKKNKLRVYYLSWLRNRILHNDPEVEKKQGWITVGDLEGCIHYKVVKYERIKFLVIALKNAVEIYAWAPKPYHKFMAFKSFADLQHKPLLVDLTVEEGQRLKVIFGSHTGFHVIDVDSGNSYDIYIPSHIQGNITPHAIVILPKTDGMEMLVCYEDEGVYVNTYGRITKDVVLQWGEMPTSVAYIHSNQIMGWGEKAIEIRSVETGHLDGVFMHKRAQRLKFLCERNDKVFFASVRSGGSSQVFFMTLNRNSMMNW
The answer is to be given in °C; state only the numeric part.

Query: Would you mind telling me what ΔTm value was observed for Cc1cncc2cccc(S(=O)(=O)N3CCCNC[C@@H]3C)c12 ?
Result: 1

Query: Same again, this time with CN(C)c1ccc(CC2C(=O)Nc3ccccc32)cc1 (configuration not stated)
Result: 4.1

Query: Again, but for O=C(O)c1cc(NCc2cc(O)ccc2O)ccc1O
Result: 0

Query: Okay, and COC(=O)[C@]1(O)C[C@@H]2O[C@@]1(C)n1c3ccccc3c3c4c(c5c6ccccc6n2c5c31)C(=O)NC4 (single isomer, unassigned) ?
Result: 8.7

Query: And for O=C1Nc2ccccc2/C1=C/c1cnc[nH]1 ?
Result: 6.1

###

TARGET UNDER TEST: Serine/threonine-protein kinase VRK3 (Homo sapiens)
Rule: ΔTm below 0.4 °C gives 1.0, anything at or above gives 0.0.

>>> assigned_label("O=C(O)c1cc(N(Cc2ccccc2O)Cc2cc(O)ccc2O)ccc1O [LAVENDUSTIN A]")
0.0
>>> assigned_label("Nc1nc(Nc2ccc(S(N)(=O)=O)cc2)nn1C(=S)Nc1c(F)cccc1F")
0.0
>>> assigned_label("CC(C)c1cc(/C=C(\\C#N)C(=O)NCCCc2ccccc2)cc(C(C)C)c1O")
0.0

Kindly consider the entry below.
Query: Below 0.4 °C on ΔTm? Entry O=S(=O)(c1cccc2c(Cl)cccc12)N1CCCNCC1
Result: 1.0
